assay: Cytotoxicity against human HuH7 cells assessed as cell viability at 50 uM after 24 hrs
Collected viability at 24 h, 50 µM values appear next to each entry.

{"columns": ["COMPOUND", "viability at 24 h, 50 µM / %"],
 "data": [
  ["C=C(C)[C@@H]1CC[C@]2(C=O)CC[C@]3(C)[C@H](CC[C@@H]4[C@@]5(C)CC[C@H](O)C(C)(C)[C@@H]5CC[C@]43C)[C@@H]12", 0],
  ["CC(C)[C@@H]1CC[C@]2(C(=O)O)CC[C@]3(C)[C@H](CC[C@@H]4[C@@]5(C)CCC(=O)C(C)(C)[C@@H]5CC[C@]43C)[C@@H]12 [DIHYDROBETULONIC ACID]", 102],
  ["CC(=O)OC[C@]12CCC(C(C)C)=C1[C@H]1CC[C@@H]3[C@@]4(C)CC[C@H](OC(C)=O)C(C)(C)[C@@H]4CC[C@@]3(C)[C@]1(C)CC2", 87],
  ["C=C(C)[C@@H]1CC[C@]2(COC(=O)c3ccccc3NC(C)=O)CC[C@]3(C)[C@H](CC[C@@H]4[C@@]5(C)CC[C@H](O)C(C)(C)[C@@H]5CC[C@]43C)[C@@H]12", 94],
  ["C=C(C)[C@@H]1CC[C@]2(C(=O)OC)CC[C@]3(C)[C@H](CC[C@@H]4[C@@]5(C)CC[C@H](O)C(C)(C)[C@@H]5CC[C@]43C)[C@@H]12 [METHYL BETULINATE]", 1]
]}

###

experiment: Cytotoxicity against human HuH7 cells assessed as cell viability at 50 uM after 24 hrs

{"columns": ["SMILES_REPRESENTATION", "viability at 24 h, 50 µM / %"],
 "data": [
  ["C=C(C)[C@@H]1CC[C@]2(C(=O)O)CC[C@]3(C)[C@H](CC[C@@H]4[C@@]5(C)CCC(=O)C(C)(C)[C@@H]5CC[C@]43C)[C@@H]12", 89],
  ["C=C(C)[C@@H]1CC[C@]2(CO)CC[C@]3(C)[C@H](CC[C@@H]4[C@@]5(C)CC[C@H](OC(C)=O)C(C)(C)[C@@H]5CC[C@]43C)[C@@H]12", 86],
  ["C=C(C)[C@@H]1CC[C@]2(COC(C)=O)CC[C@]3(C)[C@H](CC[C@@H]4[C@@]5(C)CC=CC(C)(C)[C@@H]5CC[C@]43C)[C@@H]12", 95],
  ["C=C(C)[C@@H]1CC[C@]2(COS(C)(=O)=O)CC[C@]3(C)[C@H](CC[C@@H]4[C@@]5(C)CC[C@H](OC(C)=O)C(C)(C)[C@@H]5CC[C@]43C)[C@@H]12", 99],
  ["C=C(C)[C@@H]1CC[C@]2(C=O)CC[C@]3(C)[C@H](CC[C@@H]4[C@@]5(C)CCC(=O)C(C)(C)[C@@H]5CC[C@]43C)[C@@H]12", 90],
  ["CC(=O)OC[C@]12CC[C@]3(C(C)C)C1=C1[C@H](C[C@@H]4[C@@]5(C)CC[C@H](OC(C)=O)C(C)(C)[C@@H]5CC[C@@]4(C)[C@]1(C)CC2)n1c(=O)n(-c2cccc([N+](=O)[O-])c2)c(=O)n13", 108],
  ["CC(C)C(=O)OC[C@]12CC[C@]3(C(C)C)C1=C1[C@H](C[C@@H]4[C@@]5(C)CC[C@H](OC(=O)C(C)C)C(C)(C)[C@@H]5CC[C@@]4(C)[C@]1(C)CC2)n1c(=O)n(C)c(=O)n13", 106]
]}

###

Collected IC50 values appear next to each entry.
system: Sindbis virus; assay: Antiviral activity against Sindbis virus infected in BHK cells assessed as inhibition of RNA synthesis after 14 hrs by [3H]uridine incorporation assay; type: functional, organism-based; details: read-out: IC50
MEASUREMENT_TYPE: IC50

{"columns": ["COMPOUND", "RESULT"],
 "data": [
  ["C=C(C)[C@@H]1CC[C@]2(COC3CCCCO3)CC[C@]3(C)[C@H](CC[C@@H]4[C@@]5(C)CC[C@H](O)C(C)(C)[C@@H]5CC[C@]43C)[C@@H]12 (stereo partly drawn)", "1.9 µM"],
  ["C=C(C)[C@@H]1CC[C@]2(C(=O)O)CC[C@]3(C)[C@H](CC[C@@H]4[C@@]5(C)CC[C@H](O)C(C)(C)[C@@H]5CC[C@]43C)[C@@H]12", "0.5 µM"],
  ["CC(=O)OC[C@]12CC[C@]3(C(C)C)C1=C1[C@H](C[C@@H]4[C@@]5(C)CC[C@H](OC(C)=O)C(C)(C)[C@@H]5CC[C@@]4(C)[C@]1(C)CC2)n1c(=O)n(-c2ccccc2)c(=O)n13", "6.1 µM"]
]}

###

test: Cytotoxicity against human HuH7 cells assessed as cell viability at 50 uM after 24 hrs
Collected viability at 24 h, 50 µM values appear next to each entry.
MEASUREMENT_TYPE: viability at 24 h, 50 µM

{"columns": ["MOLECULE", "RESULT"],
 "data": [
  ["C=C(C)[C@@H]1CC[C@]2(COC(C)=O)CC[C@]3(C)[C@H](CC[C@@H]4[C@@]5(C)CC[C@H](OC(C)=O)C(C)(C)[C@@H]5CC[C@]43C)[C@@H]12 [BETULIN DIACETATE]", "97%"],
  ["CC(C)[C@@]12CC[C@]3(COC(=O)C4CCCCC4)CC[C@]4(C)C(=C31)[C@H](C[C@@H]1[C@@]3(C)CC[C@H](OC(=O)C5CCCCC5)C(C)(C)[C@@H]3CC[C@]14C)n1c(=O)n(C)c(=O)n12", "97%"],
  ["C=C(C)[C@@H]1CC[C@]2(CO)CC[C@]3(C)[C@H](CC[C@@H]4[C@@]5(C)CC[C@H](O)C(C)(C)[C@@H]5CC[C@]43C)[C@@H]12", "83%"],
  ["C=C(C)[C@@H]1CC[C@]2(/C=N/O)CC[C@]3(C)[C@H](CC[C@@H]4[C@@]5(C)CC[C@H](O)C(C)(C)[C@@H]5CC[C@]43C)[C@@H]12", "82%"],
  ["C=C(C)[C@@H]1CC[C@]2(COC(=O)c3cccnc3)CC[C@]3(C)[C@H](CC[C@@H]4[C@@]5(C)CC[C@H](O)C(C)(C)[C@@H]5CC[C@]43C)[C@@H]12", "94%"]
]}

###

assay: Cytotoxicity against human HuH7 cells assessed as cell viability at 500 uM after 24 hrs; format: cell-based, Huh-7; settings: read-out: Activity
MEASUREMENT_TYPE: viability at 24 h, 500 µM

{"columns": ["SMILES_REPRESENTATION", "MEASUREMENT_TYPE", "RESULT"],
 "data": [
  ["CC(=O)OC[C@]12CC[C@]3(C(C)C)C1=C1[C@H](C[C@@H]4[C@@]5(C)CC[C@H](OC(C)=O)C(C)(C)[C@@H]5CC[C@@]4(C)[C@]1(C)CC2)n1c(=O)n(-c2ccccc2)c(=O)n13", "viability at 24 h, 500 µM", "> 80%"],
  ["C=C(C)[C@@H]1CC[C@]2(C=O)CC[C@]3(C)[C@H](CC[C@@H]4[C@@]5(C)CCC(=O)C(C)(C)[C@@H]5CC[C@]43C)[C@@H]12", "viability at 24 h, 500 µM", "52%"],
  ["C=C(C)[C@@H]1CC[C@]2(CO)CC[C@]3(C)[C@H](CC[C@@H]4[C@@]5(C)CC[C@H](OC(C)=O)C(C)(C)[C@@H]5CC[C@]43C)[C@@H]12", "viability at 24 h, 500 µM", "> 80%"]
]}

###

assay: Cytotoxicity against human HuH7 cells assessed as cell viability at 50 uM after 24 hrs
Please use 1 for viability at 24 h, 50 µM under 80% and 0 for everything else, ties included.

{"columns": ["MOLECULE", "CLASSIFICATION"],
 "data": [
  ["C=C(C)[C@@H]1CC[C@]2(C(=O)O)CC[C@]3(C)[C@H](CC[C@@H]4[C@@]5(C)CC[C@H](O)C(C)(C)[C@@H]5CC[C@]43C)[C@@H]12", 0],
  ["CC(C)[C@@]12CC[C@]3(COC(=O)C4CCCCC4)CC[C@]4(C)C(=C31)[C@H](C[C@@H]1[C@@]3(C)CC[C@H](OC(=O)C5CCCCC5)C(C)(C)[C@@H]3CC[C@]14C)n1c(=O)n(C(C)(C)C)c(=O)n12", 0],
  ["CCn1c(=O)n2n(c1=O)[C@]1(C(C)C)CC[C@]3(COC(C)=O)CC[C@]4(C)C(=C31)[C@@H]2C[C@@H]1[C@@]2(C)CC[C@H](OC(C)=O)C(C)(C)[C@@H]2CC[C@]14C", 1],
  ["C=C(C)[C@@H]1CC[C@]2(CO)CC[C@]3(C)[C@H](CC[C@@H]4[C@@]5(C)CC=CC(C)(C)[C@@H]5CC[C@]43C)[C@@H]12", 0],
  ["C=C(C)[C@@H]1CC[C@]2(COC(=O)CBr)CC[C@]3(C)[C@H](CC[C@@H]4[C@@]5(C)CC[C@H](O)C(C)(C)[C@@H]5CC[C@]43C)[C@@H]12", 1],
  ["C=C(C)[C@@H]1CC[C@]2(COC(=O)C3C(C=C(C)C)C3(C)C)CC[C@]3(C)[C@H](CC[C@@H]4[C@@]5(C)CC[C@H](O)C(C)(C)[C@@H]5CC[C@]43C)[C@@H]12 (stereo not given in full)", 0],
  ["CC(=O)OC[C@]12CC[C@]3(C(C)C)C1=C1[C@H](C[C@@H]4[C@@]5(C)CC[C@H](OC(C)=O)C(C)(C)[C@@H]5CC[C@@]4(C)[C@]1(C)CC2)n1c(=O)n(-c2ccc(F)cc2)c(=O)n13", 0],
  ["CC(=O)OC[C@]12CC[C@]3(C(C)C)C1=C1[C@H](C[C@@H]4[C@@]5(C)CC[C@H](OC(C)=O)C(C)(C)[C@@H]5CC[C@@]4(C)[C@]1(C)CC2)n1c(=O)n(-c2ccc4c(c2)CCC4)c(=O)n13", 0],
  ["C=C(C)[C@@H]1CC[C@]2(COC3CCCCO3)CC[C@]3(C)[C@H](CC[C@@H]4[C@@]5(C)CC[C@H](OC(C)=O)C(C)(C)[C@@H]5CC[C@]43C)[C@@H]12 (stereo not given in full)", 0]
]}
